- System: F1*sub RNA substrate (template-directed ligation)
- Assay explanation: fraction ligated after 30 min (ligated reads / total reads); higher = more ligase activity; sequences stand for … in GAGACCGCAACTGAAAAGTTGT…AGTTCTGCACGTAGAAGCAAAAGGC
- Condition notes: 42 °C
Observed property: fraction ligated

INSERT INTO measurements (ordered_residues, experimental_target, endpoint_result) VALUES
  ('TATCACTTGTCGTAGACTTTGGATGGGTTGA [3d2003]', 'F1*sub RNA substrate (template-directed ligation)', 0.814),
  ('TATCATTGTCGTAAGACATTTGATGGGTTGA [3d1263]', 'F1*sub RNA substrate (template-directed ligation)', 0.787),
  ('TTCACTTGTCGTAAGACACTTGGAGGGTTGA [3d487]', 'F1*sub RNA substrate (template-directed ligation)', 0.0171),
  ('TATCACTTGTCGTAAGCCTTTGGATGGGTTGA [2d245]', 'F1*sub RNA substrate (template-directed ligation)', 0.781),
  ('TATCACTTGTCGTAAGAACTTTGGTGGTTGA [3d2173]', 'F1*sub RNA substrate (template-directed ligation)', 0.0396),
  ('TATCACTGTCGTAGACACTTTGGATGGGTTGA [2d134]', 'F1*sub RNA substrate (template-directed ligation)', 0.861),
  ('TATCACTTGTCGTAAGACATTGGAGGGTTGA [3d2210]', 'F1*sub RNA substrate (template-directed ligation)', 0.0593),
  ('TATCACTTGCGAAGACACTTGGATGGGTTGA [3d1619]', 'F1*sub RNA substrate (template-directed ligation)', 0.785),
  ('TATCACTTGGTAAGAACTTTGGATGGGTTGA [3d1589]', 'F1*sub RNA substrate (template-directed ligation)', 0.804),
  ('TATCACTTGTCGTAAGCACTTTGGTGGGTTG [3d2144]', 'F1*sub RNA substrate (template-directed ligation)', 0.0518),
  ('TATCACTTTCGTAGACACTTTGGAGGGTTGA [3d1515]', 'F1*sub RNA substrate (template-directed ligation)', 0.0412),
  ('TATCCTGTCGTAAGACACTTTGGAGGGTTGA [3d964]', 'F1*sub RNA substrate (template-directed ligation)', 0.0143),
  ('TATCACTGCGTAAGACACTTGGATGGGTTGA [3d1336]', 'F1*sub RNA substrate (template-directed ligation)', 0.793),
  ('TACACTTGTCGTAAGACATTTGGATGGGTTGA [2d61]', 'F1*sub RNA substrate (template-directed ligation)', 0.472),
  ('TATCACTTGTCGTAAGCACTTTGGAGGGTTG [3d2147]', 'F1*sub RNA substrate (template-directed ligation)', 0.116),
  ('TATCACTTGTCGAAGAACTTGGATGGGTTGA [3d1936]', 'F1*sub RNA substrate (template-directed ligation)', 0.794),
  ('TTCACTTGTCGTAAGACACTTGATGGGTTGA [3d485]', 'F1*sub RNA substrate (template-directed ligation)', 0.0622),
  ('TATCACTTGTCGTAAGACACTTGAGGGTTGA [3d2240]', 'F1*sub RNA substrate (template-directed ligation)', 0.00563),
  ('TATCACTTGTCGAGACATTTGGATGGGTTGA [3d1907]', 'F1*sub RNA substrate (template-directed ligation)', 0.829),
  ('TATCACTTTCGTAAGACCTTTGGAGGGTTGA [3d1550]', 'F1*sub RNA substrate (template-directed ligation)', 0.0285),
  ('TATCACTTTCGTAAGACATTGGATGGGTTGA [3d1554]', 'F1*sub RNA substrate (template-directed ligation)', 0.791),
  ('TTCACTTGTCGTAAGACTTTGGATGGGTTGA [3d452]', 'F1*sub RNA substrate (template-directed ligation)', 0.752),
  ('ATCACTTGTCGAGACACTTTGGATGGGTTGA [3d185]', 'F1*sub RNA substrate (template-directed ligation)', 0.757),
  ('TATCACTTGTTAAGACACTTGGATGGGTTGA [3d1711]', 'F1*sub RNA substrate (template-directed ligation)', 0.784),
  ('TATCACTTGTCTAAGACACTTTGGATGGTTG [3d1899]', 'F1*sub RNA substrate (template-directed ligation)', 0.408),
  ('TATCACTTTCTAAGACACTTTGGTGGGTTGA [3d1488]', 'F1*sub RNA substrate (template-directed ligation)', 0.101),
  ('GGTTATCACTTGTCGTAAGACACTTTGGATGTGA [s37]', 'F1*sub RNA substrate (template-directed ligation)', 0),
  ('TCACTTGTGTAAGACACTTTGGATGGGTTGA [3d8]', 'F1*sub RNA substrate (template-directed ligation)', 0.662),
  ('TACACTTGCGTAAGACACTTTGATGGGTTGA [3d611]', 'F1*sub RNA substrate (template-directed ligation)', 0.0347),
  ('TATCACTGTCGTAAGACATTTGGATGGGTTG [3d1439]', 'F1*sub RNA substrate (template-directed ligation)', 0.82),
  ('TTCACTTGTCGTAAGAACTTTGGATGGGTTA [3d468]', 'F1*sub RNA substrate (template-directed ligation)', 0.0936),
  ('TATCCTTGTCGTAGACACTTTGGATGGTTGA [3d1052]', 'F1*sub RNA substrate (template-directed ligation)', 0.0426),
  ('TTACTTGTCTAAGACACTTTGGATGGGTTGA [3d283]', 'F1*sub RNA substrate (template-directed ligation)', 0.147),
  ('TATCACTGTCGTAAGACTTTGGATGGGTTGA [3d1408]', 'F1*sub RNA substrate (template-directed ligation)', 0.856),
  ('TATCACTTGTTAAGAACTTTGGATGGGTTGA [3d1708]', 'F1*sub RNA substrate (template-directed ligation)', 0.874),
  ('TATCACTTTCGTAAGACACTTGGATGGTTGA [3d1565]', 'F1*sub RNA substrate (template-directed ligation)', 0.134),
  ('TAACTTGTCGTAAGAACTTTGGATGGGTTGA [3d518]', 'F1*sub RNA substrate (template-directed ligation)', 0.21),
  ('TATCACTGTCGTAAGACACTTTGGATGGTTGA [2d144]', 'F1*sub RNA substrate (template-directed ligation)', 0.513);
